System: TALL-1;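 also: growth inhibition of cultured human TALL-1 cells, read out by a cell viability assay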
Assay: cells
Format: functional, cell-based
Details: Homo sapiens
Description: SANGER: Inhibition of human TALL-1 cell growth in a cell viability assay.
pIC50: −log10 of the molar value.
// values below are reported pIC50

Would you please look over these solved cases?
COc1cc([C@@H]2c3cc4c(cc3[C@@H](O[C@@H]3O[C@@H]5CO[C@@H](C)O[C@H]5[C@H](O)[C@H]3O)[C@H]3COC(=O)[C@H]23)OCO4)cc(OC)c1O [ETOPOSIDE]    < 4.80
CS(=O)(=O)CCNCc1ccc(-c2ccc3ncnc(Nc4ccc(OCc5cccc(F)c5)c(Cl)c4)c3c2)o1    < 5.70

// next entry
Exam item: Any idea what pIC50 came out for Cn1cncc1[C@@](N)(c1ccc(Cl)cc1)c1ccc2c(c1)c(-c1cccc(Cl)c1)cc(=O)n2C on TALL-1?
Marked response: < 4.80

###

Tested on: JIYOYE
Assay: cells
Format: functional, cell-based
Conditions: Homo sapiens
Description: SANGER: Inhibition of human JiyoyeP-2003 cell growth in a cell viability assay.
EXPERIMENTAL_READOUT: IC50 (µM)
Supply the numeric figure in µM, leaving out any unit text.

Illustrative cases are given below, each with its answer.
C=CCc1cccc(/C=N/NC(=O)CN2CCN(Cc3ccccc3)CC2)c1O    1.1
COC(=O)CNC(=O)C(=O)OC    291
COc1cc([C@@H]2c3cc4c(cc3[C@@H](O[C@@H]3O[C@@H]5CO[C@@H](C)O[C@H]5[C@H](O)[C@H]3O)[C@H]3COC(=O)[C@H]23)OCO4)cc(OC)c1O [ETOPOSIDE]    2.54

The record that follows has no IC50 shown yet.
Exam item: Can you share its IC50? I mean this compound: CCc1nc(N)nc(N)c1-c1ccc(Cl)cc1
Marked response: 10.9

###

System: HOP-92;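 also: cell viability readout, with IC50 reflecting inhibition of HOP-92 cell growth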
Assay: cells
Format: functional, cell-based, Homo sapiens
Settings: Homo sapiens, HOP-92
Description: SANGER: Inhibition of human HOP-92 cell growth in a cell viability assay.
EXPERIMENTAL_READOUT: IC50

Example compounds with recorded IC50:
CC(=O)O[C@@]12CO[C@@H]1C[C@H](O)[C@@]1(C)C(=O)[C@H](O)C3=C(C)[C@@H](OC(=O)[C@H](O)[C@@H](NC(=O)OC(C)(C)C)c4ccccc4)C[C@@](O)([C@@H](OC(=O)c4ccccc4)[C@H]21)C3(C)C [DOCETAXEL]    7.3 nM
Cn1cc(C2=C(c3ccc(Cl)cc3Cl)C(=O)NC2=O)c2ccccc21 [SB-216763]    > 10000 nM
COc1ccc(-c2ccc3c(N4CCOC[C@@H]4C)nc(N4CCOC[C@@H]4C)nc3n2)cc1CO [AZD-8055]    > 2000 nM
CN(Cc1cnc2nc(N)nc(N)c2n1)c1ccc(C(=O)N[C@@H](CCC(=O)O)C(=O)O)cc1 [METHOTREXATE]    > 200 nM
CN(C)C/C=C/C(=O)Nc1cc2c(Nc3ccc(F)c(Cl)c3)ncnc2cc1O[C@H]1CCOC1 [AFATINIB]    > 500 nM
CCOc1nc(NC(=O)Cc2cc(OC)ccc2OC)cc(N)c1C#N    > 10000 nM
O=C1N=C(NCc2cccs2)S/C1=C\c1ccc2ncccc2c1    > 5000 nM

Please look at the following compound next.
Exam item: Query IC50 on HOP-92 for COc1ccc(C2=N[C@@H](c3ccc(Cl)cc3)[C@@H](c3ccc(Cl)cc3)N2C(=O)N2CCNC(=O)C2)c(OC(C)C)c1 [NUTLIN-3]
Marked response: > 8000 nM

###

Tested on: NCI-H630;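 also: growth inhibition of NCI-H630 cells, read out with a cell viability assay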
Assay: cells
Type: functional, cell-based, Homo sapiens
Settings: Homo sapiens, NCI-H630
Description: SANGER: Inhibition of human NCI-H630 cell growth in a cell viability assay.
EXPERIMENTAL_READOUT: IC50

CC(=O)O[C@@H]1[C@@H](OC(C)=O)[C@@H](O)[C@H](Oc2c(-c3ccc(O)cc3)oc3cc(O)cc(O)c3c2=O)O[C@H]1C    > 10 µM
O=C(c1cc(Cc2n[nH]c(=O)c3ccccc23)ccc1F)N1CCN(C(=O)C2CC2)CC1 [OLAPARIB]    > 5 µM
COC(=O)CNC(=O)C(=O)OC    3880 µM

Exam item: Fill in: IC50 of Nc1ccn([C@@H]2O[C@H](CO)[C@@H](O)[C@@H]2O)c(=O)n1 [CYTARABINE] is ___
Marked response: > 2 µM

Exam item: What value of IC50 has been reported for the following molecule? COc1ccc(-c2ccc3c(N4CCOC[C@@H]4C)nc(N4CCOC[C@@H]4C)nc3n2)cc1CO [AZD-8055]
Marked response: > 2 µM

Exam item: What measured IC50 goes with COc1cc([C@@H]2c3cc4c(cc3[C@@H](O[C@@H]3O[C@@H]5CO[C@@H](C)O[C@H]5[C@H](O)[C@H]3O)[C@H]3COC(=O)[C@H]23)OCO4)cc(OC)c1O [ETOPOSIDE] ?
Marked response: 9.12 µM

###

Test system: NB14
Assay: cells
Assay type: functional, cell-based
Details: Homo sapiens
Description: SANGER: Inhibition of human NB14 cell growth in a cell viability assay.
Listing: IC50 of selected molecules

CCc1nc(N)nc(N)c1-c1ccc(Cl)cc1    > 20 µM

Exam item: Test system NB14; read-out IC50; what value for CCC(=O)N1CCN(c2ccc(-n3c(=O)ccc4cnc5ccc(-c6cnc7ccccc7c6)cc5c43)cc2C(F)(F)F)CC1 ?;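 also: growth inhibition of NB14 cells measured with a cell viability assay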
Marked response: > 1.2 µM

Exam item: Find IC50 (NB14) for the entry C=CCNC1=C2C[C@@H](C)C[C@H](OC)[C@H](O)[C@@H](C)/C=C(\C)[C@H](OC(N)=O)[C@@H](OC)/C=C\C=C(/C)C(=O)NC(=CC1=O)C2=O
Marked response: > 1 µM

Exam item: Recorded IC50 for CC(=O)O[C@@H]1[C@@H](OC(C)=O)[C@@H](O)[C@H](Oc2c(-c3ccc(O)cc3)oc3cc(O)cc(O)c3c2=O)O[C@H]1C with NB14, please?
Marked response: > 10 µM

Exam item: Hello, I am looking for reported IC50 with NB14 for O=C(c1cc(Cc2n[nH]c(=O)c3ccccc23)ccc1F)N1CCN(C(=O)C2CC2)CC1 . Could you help?
Marked response: > 5 µM

###

pIC50 listing for selected compounds.
System: GR-ST
Assay: cells
Type: functional, cell-based
Conditions: Homo sapiens
Description: SANGER: Inhibition of human GR-ST cell growth in a cell viability assay.
In textbook form, pIC50 equals minus log to base ten of the concentration in mol/L.

COC(=O)CNC(=O)C(=O)OC    3.67

Please find the next compound below.
Exam item: Please report the recorded pIC50 for COc1cc([C@@H]2c3cc4c(cc3[C@@H](O[C@@H]3O[C@@H]5CO[C@@H](C)O[C@H]5[C@H](O)[C@H]3O)[C@H]3COC(=O)[C@H]23)OCO4)cc(OC)c1O [ETOPOSIDE] .
Marked response: 5.17

###

Recorded IC50 by entry
Tested on: LNCaP-Clone-FGC
Experiment: cells
Assay type: functional, cell-based, Homo sapiens
Settings: Homo sapiens, LNCaP-Clone-FGC
Description: SANGER: Inhibition of human LNCaP-Clone-FGC cell growth in a cell viability assay.

Would you please look over these solved cases?
CN(c1ncccc1CNc1nc(Nc2ccc3c(c2)CC(=O)N3)ncc1C(F)(F)F)S(C)(=O)=O [PF-00562271]    > 2.56 µM
CN(C)C/C=C/C(=O)Nc1cc2c(Nc3ccc(F)c(Cl)c3)ncnc2cc1O[C@H]1CCOC1 [AFATINIB]    > 0.5 µM
COc1cc(F)c(F)c(Nc2ccc(I)cc2F)c1NS(=O)(=O)C1(CC(O)CO)CC1 (stereo unspecified)    > 5 µM
COC(=O)CNC(=O)C(=O)OC    3210 µM
CO[C@H]1C[C@@H]2CC[C@@H](C)[C@@](O)(O2)C(=O)C(=O)N2CCCC[C@H]2C(=O)O[C@H]([C@H](C)C[C@@H]2CC[C@@H](O)[C@H](OC)C2)CC(=O)[C@H](C)/C=C(\C)[C@@H](O)[C@@H](OC)C(=O)[C@H](C)C[C@H](C)/C=C/C=C/C=C/1C [SIROLIMUS]    > 0.1 µM

Exam item: Tell me the measured IC50 of CC1=C2C[C@H]3[C@@H](CC=C4C[C@@H](O)CC[C@@]43C)[C@@H]2CC[C@]12O[C@@H]1C[C@H](C)CN[C@H]1[C@H]2C [CYCLOPAMINE] , please.
Marked response: > 16 µM

###

// pIC50 lookup, one value per entry
Tested on: NCI-H1666
Test: cells
Assay type: functional, cell-based
Conditions: Homo sapiens
Description: SANGER: Inhibition of human NCI-H1666 cell growth in a cell viability assay.
pIC50: −log10 of the molar value.

Field: example entries. Status: answers known.
Cn1cc(C2=C(c3ccc(Cl)cc3Cl)C(=O)NC2=O)c2ccccc21 [SB-216763]    < 5.00
COc1ccc(C2=N[C@@H](c3ccc(Cl)cc3)[C@@H](c3ccc(Cl)cc3)N2C(=O)N2CCNC(=O)C2)c(OC(C)C)c1 [NUTLIN-3]    < 5.10
CCOc1nc(NC(=O)Cc2cc(OC)ccc2OC)cc(N)c1C#N    < 5.00
O=C(NOCC1CC1)c1ccc(F)c(F)c1Nc1ccc(I)cc1Cl [CI-1040]    5.22

Exam item: For COc1ccc(-c2ccc3c(N4CCOC[C@@H]4C)nc(N4CCOC[C@@H]4C)nc3n2)cc1CO [AZD-8055] , what is its reported pIC50?
Marked response: < 5.70
